Value source: patent US20150031628A1

# Assay summary: in vivo
# Experimental setup: female, beagle, dog, plasma, po, 20 mg
Quantity kind: AUC(0-inf) (ng·h/mL)
Expressed in ng·h/mL, but write only the number.

Return AUC(0-inf) for the following molecule: CC(=O)O[C@H]1C(=O)[C@@]2(C)[C@H]([C@H](OC(=O)c3ccccc3)[C@]3(O)C[C@H](OC(=O)[C@H](O)[C@@H](NC(=O)c4ccccc4)c4ccccc4)C(C)=C1C3(C)C)[C@]1(OC(C)=O)CO[C@@H]1C[C@@H]2O [Unformulated Paclitaxel, Paclitaxel] 28.9

====

# Assay summary: in vivo
# Experimental setup: female, beagle, dog, plasma, po, 20 mg
Quantity kind: AUC(0-inf) (ng·h/mL)
A number alone suffices; assume ng·h/mL.

Using known records, supply AUC(0-inf) for CC(=O)O[C@H]1C(=O)[C@@]2(C)[C@H]([C@H](OC(=O)c3ccccc3)[C@]3(O)C[C@H](OC(=O)[C@H](O)[C@@H](NC(=O)c4ccccc4)c4ccccc4)C(C)=C1C3(C)C)[C@]1(OC(C)=O)CO[C@@H]1C[C@@H]2O 28.9
